The reported measurements were obtained from ChEMBL document CHEMBL4270576.

Target: Polyunsaturated fatty acid 5-lipoxygenase (Homo sapiens)
Assay: Inhibition of recombinant human 5-LO expressed in Escherichia coli BL21 (DE3) using arachidonic acid as substrate assessed as residual activity preincubated for 10 mins followed by CaCl2 and substrate addition measured after 10 mins by RP-HPLC analysis
Returns one of yes (1) or no (0); yes (1) when Activity is >= 90%.

Some entries whose results are on file:
>>> assigned_category("Cc1ccc(S(=O)(=O)N(Cc2ccc(Oc3ccccc3)cc2)c2ccc(C(=O)O)cc2)cc1")
"no (0)"
>>> assigned_category("COc1ccc(CN(c2ccc(C(=O)O)cc2)S(=O)(=O)c2ccc(C)cc2)cc1OC")
"yes (1)"
>>> assigned_category("CCCCN(c1ccc(C(=O)O)cc1)S(=O)(=O)c1ccc(-c2ccccc2)cc1")
"yes (1)"
>>> assigned_category("O=C(O)c1ccc(N(Cc2cccs2)S(=O)(=O)c2ccc(C(=O)O)cc2)cc1")
"yes (1)"
>>> assigned_category("O=C(O)c1ccc(N(Cc2cccs2)S(=O)(=O)c2ccc(Cl)cc2)cc1")
"no (0)"
>>> assigned_category("Cc1ccc(CN(c2ccc(C(=O)O)cc2)S(=O)(=O)c2ccc(-c3ccccc3)cc2)cc1")
"no (0)"

Attention now shifts to the item below.
Activity >= 90% for Cc1ccc(S(=O)(=O)N(Cc2ccsc2)c2ccc(C(=O)O)cc2)cc1 ? yes (1)
